Reported Ki is given for each of the following compounds.
tested.system: Histamine H3 receptor (Cavia porcellus, UniProt Q9JI35)
Sequence (Q9JI35 whole entry): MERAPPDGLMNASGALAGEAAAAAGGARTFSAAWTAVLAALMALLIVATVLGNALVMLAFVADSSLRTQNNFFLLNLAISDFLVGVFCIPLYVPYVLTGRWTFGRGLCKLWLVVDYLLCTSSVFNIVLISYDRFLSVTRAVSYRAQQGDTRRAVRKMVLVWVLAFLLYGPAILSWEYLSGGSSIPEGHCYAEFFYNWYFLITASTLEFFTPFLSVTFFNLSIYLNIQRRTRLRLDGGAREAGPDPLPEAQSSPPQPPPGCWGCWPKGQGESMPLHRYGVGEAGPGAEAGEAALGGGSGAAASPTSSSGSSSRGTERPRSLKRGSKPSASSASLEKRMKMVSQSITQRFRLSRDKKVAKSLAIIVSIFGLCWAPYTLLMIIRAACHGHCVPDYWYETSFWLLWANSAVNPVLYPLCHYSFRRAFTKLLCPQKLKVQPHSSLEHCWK
test.method.notes: Histamine H3 Radioligand Binding Assay - Guinea Pig Cortex ([3H]-R-α-methylhistamine)
Set-up: The cortex was dissected, weighed and homogenised in ice-cold 20 mM Hepes-NaOH buffer; from tissue; host or cells: guinea pig brain cortex membranes
run.conditions: guinea pig cortex membranes; 0.1 nM [3H]-R-α-methylhistamine; typical variance ±0.12 log units; read-out: pKI (binding assay) - cortex (converted)
Give just the numeric value; nM need not be written.

Take a look at these entries with their results.
# compound, value.reported
records = [
    ("O=S(=O)(Cc1ccc(Cl)cc1)Nc1ccc(Cc2c[nH]cn2)cc1 [Example 4]", 93.3),
    ("O=S(=O)(Cc1ccc(Cl)cc1)Nc1ccc(-c2c[nH]cn2)cc1 [Example 5]", 1410),
    ("O=S(=O)(Cc1ccc(Cl)cc1)NCCc1ccc(Cc2c[nH]cn2)cc1 [Example 7]", 288),
    ("O=S(=O)(Cc1ccc(Cl)cc1)NCc1ccc(Cc2c[nH]cn2)cc1 [Example 2]", 28.8),
    ("O=S(=O)(NCc1ccc(Cl)cc1)NCc1ccc(Cc2c[nH]cn2)cc1 [Example 3]", 15.8),
]

Supply reported Ki belonging to this compound: O=S(=O)(Cc1ccc(Cl)cc1)NCc1cccc(Cc2c[nH]cn2)c1 [Example 6]
372

Supply reported Ki belonging to this compound: O=S(=O)(NCc1ccc(Cc2c[nH]cn2)cc1)c1ccc2ccccc2c1 [Example 1]
324
